target-or-test-system: SARS-COV-2 RBD (SARS-COV-2, UniProt P0DTC2 319-539)
test-details: ELISA, RBD coated
experimental-endpoint: EC50

Consider the binder shown here: C513 (antibody, V domains shown) VH: EVQLLESGGGLVQPGGSLRLSCVASGFSFSTYAMSWVRQAPGQGLEWVSTITGTSIGTYYADSVKGRFTISRDNSKNTVFLQMKSLRAEDAAVYYCANHPLASGDEYYYYYMDVWGKGTTVTVSS VL: EIVLTQSPDTLSLSPGERATLSCRASQSVHSKQLAWYQQKPGQAPRLLIYGASSRATGIPDRFSGSGSGTDFTLTISRLEPEDFAVYYCQQYGSIRALTFGGGTKVEIK What is its recorded EC50?
1.31 ng/mL

Continue with C045 (antibody, V domains shown) VH: EVQLVESGGGLVQPGGSLRLSCAASGFTFSTYSMNWVRQAPGKGLEWVSYISSSSSTIHYADSVKGRFTISRDNAKNSLYLQMNSLRDEDTAVYYCAREAHDGALTDYGDYLNWFDPWGQGTLVTVSS VL: SYELTQPPSVSVAPGKTARITCGGTNIGSKNVHWYQQKPGQAPVLVIYYDNDRPSGIPERFSGSNSGNTATLTISRVEAGDEADYYCQVWDTTSDHFYWVFGGGTKLTVL
7 ng/mL

Continue with C534 (antibody, V domains shown) VH: QVQLVQSGAEVKKPGSSVRVSCKASGGTFSRNVISWVRQAPGQGLEWMGGIIPMFATANYAQKFQGRVTITADESSSTAYMELSSLRSEDTAVYYCAREDFILVSAPIRENSYYYYGMDVWGQGTTVTVSS VL: EIVLTQSPGTLSLSPGERATLSCRASQSVSSNYLAWYQQKPGQAPRLLIYDASSRATGIPDRFSGSGSGTDFTLTISRLEPEDFAVYYCQQYGGSPRTFGQGTKVEIK
4.85 ng/mL

Origin of values: patent US20240218057A1
